molecular target: human opioid κ receptor (Homo sapiens, UniProt P41145); construct: host or cells: CHO cells; assay: cell-based; conditions: read-out: κ receptor Emax, starred: reaction rate at the maximum concentration (reference value)
Sequence (P41145 whole entry): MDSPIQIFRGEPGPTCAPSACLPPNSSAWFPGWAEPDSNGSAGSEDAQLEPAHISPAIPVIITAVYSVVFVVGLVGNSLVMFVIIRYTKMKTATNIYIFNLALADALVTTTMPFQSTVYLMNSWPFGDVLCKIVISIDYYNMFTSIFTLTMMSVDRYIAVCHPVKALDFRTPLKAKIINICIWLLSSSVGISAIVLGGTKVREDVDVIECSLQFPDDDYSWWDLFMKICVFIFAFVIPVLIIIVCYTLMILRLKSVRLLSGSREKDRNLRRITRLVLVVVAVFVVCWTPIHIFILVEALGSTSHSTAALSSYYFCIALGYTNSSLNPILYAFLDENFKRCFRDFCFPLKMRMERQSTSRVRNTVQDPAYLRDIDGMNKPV
Emax listing for selected compounds.
# output: numeric value plus its unit

Known results for compounds:
compound="O=C(c1cc[nH]c(=O)c1)N1C[C@H]2C[C@@]34CC[C@@H]1[C@@H]2[C@@]31CCN(CC2CC2)[C@@H]4Cc2ccc(O)cc21 [Example 11]" assay_result=-2.5%
compound="O=C(c1cccc(=O)[nH]1)N1C[C@H]2C[C@@]34CC[C@@H]1[C@@H]2[C@@]31CCN(CC2CC2)[C@@H]4Cc2ccc(O)cc21 [Example 7]" assay_result=-0.9%
compound="O=C(c1cc(=O)cco1)N1C[C@H]2C[C@@]34CC[C@@H]1[C@@H]2[C@@]31CCN(CC2CC2)[C@@H]4Cc2ccc(O)cc21 [Example 19]" assay_result=0.6%
compound="O=C(c1cc(=O)cc[nH]1)N1C[C@H]2C[C@@]34CC[C@@H]1[C@@H]2[C@@]31CCN(CC2CC2)[C@@H]4Cc2ccc(O)cc21 [Example 14]" assay_result=6.7%
compound="Cn1c(C(=O)N2C[C@H]3C[C@@]45CC[C@@H]2[C@@H]3[C@@]42CCN(CC3CC3)[C@@H]5Cc3ccc(O)cc32)cccc1=O [Example 10]" assay_result=-0.7%

Please look at the following compound next.
**Query** Sample Cn1cccc(C(=O)N2C[C@H]3C[C@@]45CC[C@@H]2[C@@H]3[C@@]42CCN(CC3CC3)[C@@H]5Cc3ccc(O)cc32)c1=O [Example 6] — what was its Emax?
**Result** 3.2%
